Exercise: for every item that follows, state its recorded isoTOP-ABPP ratio O14980_C528.
Biological target: cysteines in MDA-MB-231 and Ramos cells (Homo sapiens, UniProt O14980)
Sequence (O14980 whole entry, the tested form may be a part): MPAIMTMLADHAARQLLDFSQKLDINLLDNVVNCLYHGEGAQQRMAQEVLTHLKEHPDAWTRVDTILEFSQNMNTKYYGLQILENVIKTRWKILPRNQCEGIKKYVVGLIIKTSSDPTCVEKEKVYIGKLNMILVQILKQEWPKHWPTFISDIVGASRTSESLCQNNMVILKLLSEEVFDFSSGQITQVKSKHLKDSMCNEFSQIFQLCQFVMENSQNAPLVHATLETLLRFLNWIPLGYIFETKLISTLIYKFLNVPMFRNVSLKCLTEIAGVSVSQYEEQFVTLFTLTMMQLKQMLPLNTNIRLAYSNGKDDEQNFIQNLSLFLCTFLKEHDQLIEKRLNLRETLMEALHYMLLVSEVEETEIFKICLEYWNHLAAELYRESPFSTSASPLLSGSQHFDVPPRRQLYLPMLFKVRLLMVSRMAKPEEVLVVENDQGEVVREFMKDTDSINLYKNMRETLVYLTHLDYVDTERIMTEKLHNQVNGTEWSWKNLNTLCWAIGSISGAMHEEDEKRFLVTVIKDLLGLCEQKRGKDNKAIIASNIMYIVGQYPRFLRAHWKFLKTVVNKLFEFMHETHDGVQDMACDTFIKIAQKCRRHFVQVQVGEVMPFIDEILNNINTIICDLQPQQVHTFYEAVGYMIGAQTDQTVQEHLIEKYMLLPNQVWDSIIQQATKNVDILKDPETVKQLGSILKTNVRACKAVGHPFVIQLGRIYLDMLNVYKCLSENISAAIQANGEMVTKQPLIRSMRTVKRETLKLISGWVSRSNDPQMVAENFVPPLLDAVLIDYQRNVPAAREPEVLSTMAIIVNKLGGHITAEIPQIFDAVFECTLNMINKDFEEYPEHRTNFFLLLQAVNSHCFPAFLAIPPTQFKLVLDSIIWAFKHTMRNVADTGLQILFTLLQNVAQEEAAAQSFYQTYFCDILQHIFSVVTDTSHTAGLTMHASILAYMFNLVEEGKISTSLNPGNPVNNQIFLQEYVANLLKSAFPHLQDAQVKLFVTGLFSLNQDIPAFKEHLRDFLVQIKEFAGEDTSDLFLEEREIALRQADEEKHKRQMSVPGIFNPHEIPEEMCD
Experiment: Competitive isoTOP-ABPP in situ (fragment-treated cells)
Type: cell-based
Details: 200 μM, insitu, 231
The reply should be a number, written without any unit.

q: What value of isoTOP-ABPP ratio O14980_C528 has been recorded for this entry: O=C(CCl)NCCc1c[nH]c2ccccc12 [compound 13]
a: 1.1

q: What value of isoTOP-ABPP ratio O14980_C528 has been recorded for this entry: Cc1ccc(C=C(C#N)C(=O)NCCN2CCOCC2)cc1 [compound 41]
a: 0.9

q: What value of isoTOP-ABPP ratio O14980_C528 has been recorded for this entry: O=C(CCl)NC12CC3CC(CC(C3)C1)C2 [compound 21]
a: 0.8

q: What value of isoTOP-ABPP ratio O14980_C528 has been recorded for this entry: O=C(CCl)Nc1cccc2ncccc12 [compound 51]
a: 1.1

q: What value of isoTOP-ABPP ratio O14980_C528 has been recorded for this entry: C=CC(=O)Nc1cc(F)c(N2CCN(C(=O)OC(C)(C)C)CC2)c(F)c1 [compound 38]
a: 2.1

q: What value of isoTOP-ABPP ratio O14980_C528 has been recorded for this entry: O=C(CCl)N1CCN(S(=O)(=O)c2ccccc2F)CC1 [compound 10]
a: 1.3
